assay: S. cerevisiae growth inhibition in permissive medium (OD615), pilot counter-assay for S. cerevisiae lifespan shortening project, permissive growth control (AID 705); settings: OD615, 24 h, at 10 µM
The source made the active and inactive calls.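 The calls were made as follows: active = growth inhibition above 25% in both replicates, a cutoff set 3 SD above the mean; inconclusive = above 25% in only one replicate; inactive = the rest.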
Outcomes: True (active), False (inactive)

COc1ccc(CCNC(=O)CSc2nnnn2-c2ccccc2OC)cc1OC    False
CCOC(=O)Nc1ccc2c(c1)N(C(=O)N(C)C)c1ccccc1CC2    False
O=C(/C=C/N1CCOCC1)c1ccc(-c2ccccc2)cc1    True
Cc1cccc(Cn2c(SCCN3CCOCC3)nc3c2c(=O)n(C)c(=O)n3C)c1    False
CCCOC(=O)CC1C(=O)NCCN1Cc1ccc(F)cc1 (stereo unspecified)    False
CCOC(=O)C1CCN(Cc2ccc(F)c(Br)c2)CC1    False

====

experiment: viability of PTEN-null HCT116 cells – cell-based, HCT116 clonal line, CellTiter-Glo, pilot screen (AID 824); settings: HCT116 PTEN-deleted viability, 60 h, at 10 µM, hits give low values;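 also: 0% = 20 µM Hyamine control and 100% = vehicle cell control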
Inconclusive results are not listed.
Property: viability; scope: individual compounds
measured-parameter: viability (%)

CCC(=O)Nc1ccc(C(=O)n2nc(C)cc2C)cc1    98.9
CCOC(=O)Nc1ccc2c(c1)N(C(=O)OCCN(C)C)c1ccccc1CC2    78.8
COc1cccc(C(c2sc3ncnn3c2O)N2CCN(C(=O)c3ccco3)CC2)c1 (configuration not stated)    101
CC1(C)CC(=O)C2=C(C1)NC(=O)CC2c1ccc(N(CCC#N)CCC#N)cc1 (configuration not stated)    100
COc1ccc(CCc2nc(-c3ccc(-n4cccc4)cc3)no2)cc1    91.6
CC(C(=O)N1CC2(C)CC1CC(C)(C)C2)N1C(=O)c2ccccc2C1=O (configuration not stated)    83.5
CCOc1ccccc1NC(=O)C1CCN(S(=O)(=O)c2cccc3cccnc23)CC1    80.9
COc1ccc(S(=O)(=O)N2CCCN(S(=O)(=O)c3ccc(OC)cc3C)CC2)c(C)c1    84.7
COCCn1c(=O)[nH]c2cc(C(=O)N3CCN(c4ccccc4OC)CC3)ccc2c1=O    99
CC(C)CCOc1cccc(C2c3c(oc4ccccc4c3=O)C(=O)N2CCCN2CCOCC2)c1 (configuration not stated)    84.2
CCN1CCN(C(=O)C2CCN(Cc3nc(-c4ccc(Cl)cc4)oc3C)CC2)CC1    79.7
Cn1c(SCC(=O)Nc2ccc(F)cc2)nnc1-c1cccnc1    101
CC1(C)CC(=O)C=C(NCc2cccnc2)C1    94.9
O=C(Nc1nc(-c2ccccn2)cs1)C1CC1    70.5
CC(C)OCCCNC(=O)c1ccc2c(c1)ncn2C1CCCC1    97.5
O=C(CS(=O)(=O)c1cn(Cc2cccc(F)c2)c2ccccc12)N1CCOCC1    88.8
CCOC(=O)N1CCN(C(=O)c2ccc(CS(=O)(=O)c3ccc(OC)cc3)o2)CC1    97.4
Clc1cc(Br)ccc1OCCOCCN1CCOCC1    91.7
COc1ccccc1OCc1nc(C#N)c(N2CC(C)CC(C)C2)o1 (configuration not stated)    72.9
Cc1cccc(Cn2c(SCC(=O)Nc3ccccc3)nc3c2c(=O)[nH]c(=O)n3C)c1    71
O=C(CSc1nnnn1-c1ccccc1)Nc1ccc(Cl)cc1    76.8
CSc1ccc(Cl)c(C(=O)NCc2ccco2)c1    81.6

Origin of measurements: PubChem BioAssay
